Values were extracted from patent US7932246B2.

System: HeLa cells
testDetails: HeLa cell inhibition assay (SRB cell viability)
Assay type: cell-based
conditionSummary: Homo sapiens, HeLa, 72 h, IC50 range
readoutKind: IC50

Consider the worked cases shown below.
CC(=O)N(Cc1ccc2ccccc2c1)C1C2CN(c3ncc(C(=O)NO)cn3)CC21 (centres unmarked) [Example 60]; < 330 nM
COc1ccc(CNC2C3CN(c4ncc(C(=O)NO)cn4)CC32)cc1 (centres unmarked) [Example 21]; 331 to 3300 nM
O=C(NO)c1cnc(N2CC3C(C2)C3NC(c2ccccc2)C(F)(F)F)nc1 (centres unmarked) [Example 40]; 331 to 3300 nM
O=C(NO)c1cnc(N2CC3C(C2)C3NCc2ccc(OC(F)(F)F)cc2)nc1 (centres unmarked) [Example 34]; 331 to 3300 nM

Asked: Which IC50 is reported with HeLa cells for this entry: O=C(NO)c1cnc(N2CC3C(C2)C3NC(=O)c2ccc3ccccc3c2)nc1 (centres unmarked) [Example 5] ?
Given back: 331 to 3300 nM

----------
System: HUT
testDetails: HUT cell inhibition assay (WST-1 cell viability)
Format: cell-based
conditionSummary: HUT cells, 72-96 h, WST-1 assay, IC50 range
pIC50: −log10 of the molar value.
The entries below are paired with their reported pIC50.

Consider the worked cases shown below.
O=C(NO)c1cnc(N2CC3CN(Cc4ccc5ccccc5c4)CC3C2)nc1 (centres unmarked); > 6.48
O=C(NO)c1cnc(N2CC3C(C2)C3NCCC(c2ccccc2)c2ccccc2)nc1 (centres unmarked); > 6.48

Asked: Name the reported pIC50 value associated with the compound O=C(NO)c1cnc(N2CC3C(C2)C3NCc2ccc(Oc3ccccc3)cc2)nc1 (centres unmarked)
Given back: > 6.48

Asked: Name the reported pIC50 value associated with the compound O=C(NO)c1cnc(N2CC3C(C2)C3NC(=O)C2CCCCC2)nc1 (centres unmarked)
Given back: 5.48 to 6.48

Asked: Name the reported pIC50 value associated with the compound O=C(NO)c1cnc(N2CC3C(C2)C3NCc2ccc3ccccc3n2)nc1 (centres unmarked)
Given back: > 6.48

Asked: Name the reported pIC50 value associated with the compound O=C(CCCCc1ccccc1)NC1C2CN(c3ncc(C(=O)NO)cn3)CC21 (centres unmarked)
Given back: 5.48 to 6.48

Asked: Name the reported pIC50 value associated with the compound O=C(NO)c1cnc(N2CC3C(CNCc4ccc5ccccc5n4)C3C2)nc1 (centres unmarked)
Given back: > 6.48

Asked: Name the reported pIC50 value associated with the compound O=C(Cc1ccc(-c2ccccc2)cc1)NC1C2CN(c3ncc(C(=O)NO)cn3)CC21 (centres unmarked)
Given back: > 6.48

Asked: Name the reported pIC50 value associated with the compound O=C(NO)c1cnc(N2CC3CN(S(=O)(=O)c4ccc(OC(F)(F)F)cc4)CC3C2)nc1 (centres unmarked)
Given back: 5.48 to 6.48

Asked: Name the reported pIC50 value associated with the compound O=C(NO)c1cnc(N2CC3C(C2)C3Nc2ccc3ccccc3n2)nc1 (centres unmarked)
Given back: > 6.48

Asked: Name the reported pIC50 value associated with the compound O=C(NO)c1cnc(N2CC3CN(C(=O)c4ccc5ccccc5c4)CC3C2)nc1 (centres unmarked)
Given back: > 6.48

Asked: Name the reported pIC50 value associated with the compound O=C(NO)c1cnc(N2CC3C(C2)C3N(Cc2ccc3ccccc3c2)C(=O)CCc2cccnc2)nc1 (centres unmarked)
Given back: > 6.48

Asked: Name the reported pIC50 value associated with the compound O=C(NO)c1cnc(N2CC3C(C2)C3N(CCO)S(=O)(=O)c2ccc3ccccc3c2)nc1 (centres unmarked)
Given back: 5.48 to 6.48

Asked: Name the reported pIC50 value associated with the compound O=C(NO)c1cnc(N2CC3C(C2)C3N(CCN2CCCC2=O)S(=O)(=O)c2ccc(OC(F)(F)F)cc2)nc1 (centres unmarked)
Given back: 5.48 to 6.48

Asked: Name the reported pIC50 value associated with the compound Cc1nccn1CCN(C1C2CN(c3ncc(C(=O)NO)cn3)CC21)S(=O)(=O)c1ccc2ccccc2c1 (centres unmarked)
Given back: 5.48 to 6.48

Asked: Name the reported pIC50 value associated with the compound CCCCc1ccc(CNC2C3CN(c4ncc(C(=O)NO)cn4)CC32)cc1 (centres unmarked)
Given back: > 6.48

Asked: Name the reported pIC50 value associated with the compound O=C(NO)c1cnc(N2CC3C(C2)C3N(CCN2CCCCC2)S(=O)(=O)c2ccc3ccccc3c2)nc1 (centres unmarked)
Given back: > 6.48

Asked: Name the reported pIC50 value associated with the compound O=C(NO)c1cnc(N2CC3CN(Cc4ccc(Cl)cc4)CC3C2)nc1 (centres unmarked)
Given back: > 6.48

----------
Test system: HeLa cells
testDetails: HeLa cell inhibition assay (SRB cell viability)
Type: cell-based
conditionSummary: Homo sapiens, HeLa, 72 h, IC50 range
Counter-ions that a name gives are not always drawn.
The entries below are paired with their reported IC50.

O=C(NO)c1cnc(N2CC3C(C2)C3NCc2ccc3ccccc3c2)nc1 (centres unmarked); 331 to 3300 nM
O=C(NO)c1cnc(N2CC3C(C2)C3NS(=O)(=O)c2ccc3ccccc3c2)nc1 (centres unmarked) [Example 1, trifluoroacetate]; < 330 nM
O=C(CCCCc1ccccc1)NC1C2CN(c3ncc(C(=O)NO)cn3)CC21 (centres unmarked); 331 to 3300 nM
CCN(CC)CCC(=O)N(Cc1ccc2ccccc2c1)C1C2CN(c3ncc(C(=O)NO)cn3)CC21 (centres unmarked); < 330 nM
O=C(NO)c1cnc(N2CC3CN(Cc4ccc5ccccc5c4)CC3C2)nc1 (centres unmarked); < 330 nM
O=C(NO)c1cnc(N2CC3C(C2)C3N(Cc2cccnc2)Cc2ccc3ccccc3c2)nc1 (centres unmarked); 331 to 3300 nM
O=C(NO)c1cnc(NC2C3CN(S(=O)(=O)c4ccc5ccccc5c4)CC32)nc1 (centres unmarked); > 3300 nM

# ---- query molecule ----
Asked: Name the reported IC50 value associated with the molecule CC(CCNC1C2CN(c3ncc(C(=O)NO)cn3)CC21)c1ccccc1 (centres unmarked)
Given back: < 330 nM

----------
The entries below are paired with their reported pIC50.
Tested on: HUT
testDetails: HUT cell inhibition assay (WST-1 cell viability)
Type: cell-based
conditionSummary: HUT cells, 72-96 h, WST-1 assay, IC50 range
pIC50: −log10 of the molar value.

Consider the worked cases shown below.
COc1ccc(CNC2C3CN(c4ncc(C(=O)NO)cn4)CC32)cc1 (stereo not drawn) [Example 21]; > 6.48
O=C(NO)c1cnc(N2CCC3(CC2)CCN(S(=O)(=O)c2ccc4ccccc4c2)CC3)nc1 [Example 86]; 5.48 to 6.48
O=C(NO)c1cnc(N2CC3C(C2)C3NS(=O)(=O)c2ccc(OC(F)(F)F)cc2)nc1 (stereo not drawn) [Example 4]; > 6.48
O=C(NO)c1ccc(N2CC3C(C2)C3NCc2ccc3ccccc3c2)cc1 (stereo not drawn) [Example 88]; 5.48 to 6.48
O=C(NO)c1cnc(N2CC3C(C2)C3NCc2ccc3cc(F)ccc3n2)nc1 (stereo not drawn) [Example 44]; > 6.48
CC(C(=O)NC1C2CN(c3ncc(C(=O)NO)cn3)CC21)c1ccccc1 (stereo not drawn) [Example 10]; 5.48 to 6.48

# ---- query compound ----
Asked: Name the reported pIC50 value associated with the compound O=C(NO)c1cnc(N2CC3C(CNCc4ccc5ccccc5c4)C3C2)nc1 (stereo not drawn) [Example 71]
Given back: > 6.48

----------
The entries below are paired with their reported pIC50.
System: HeLa cells
testDetails: HeLa cell inhibition assay (SRB cell viability)
Type: cell-based
conditionSummary: Homo sapiens, HeLa, 72 h, IC50 range
pIC50: −log10 of the molar value.

O=C(NO)c1cnc(N2CC3C(C2)C3N(CCO)S(=O)(=O)c2ccc3ccccc3c2)nc1 (centres unmarked); 5.48 to 6.48
O=C(NO)c1cnc(N2CC3C(C2)C3N(CCN2CCCC2=O)S(=O)(=O)c2ccc(OC(F)(F)F)cc2)nc1 (centres unmarked); < 5.48
O=C(NO)c1cnc(N2CC3C(C2)C3N2CCOCC2)nc1 (centres unmarked); < 5.48

Asked: Name the reported pIC50 value associated with the molecule O=C(NO)c1cnc(N2CC3C(C2)C3Nc2ccc3ccccc3n2)nc1 (centres unmarked)
Given back: 5.48 to 6.48

Asked: Name the reported pIC50 value associated with the molecule O=C(NO)c1cnc(N2CC3C(C2)C3N2CCc3ccccc3C2)nc1 (centres unmarked)
Given back: 5.48 to 6.48

Asked: Name the reported pIC50 value associated with the molecule O=C(NO)c1cnc(N2CC3C(C2)C3N(CCc2ccccn2)S(=O)(=O)c2ccc3ccccc3c2)nc1 (centres unmarked)
Given back: 5.48 to 6.48

Asked: Name the reported pIC50 value associated with the molecule CCN(CC)CCN(Cc1ccc2ccccc2c1)C1C2CN(c3ncc(C(=O)NO)cn3)CC21 (centres unmarked)
Given back: > 6.48

----------
The entries below are paired with their reported IC50.
Tested on: HUT
testDetails: HUT cell inhibition assay (WST-1 cell viability)
Format: cell-based
conditionSummary: HUT cells, 72-96 h, WST-1 assay, IC50 range

Asked: Name the reported IC50 value associated with the compound O=C(NO)c1cnc(N2CC3CN(S(=O)(=O)c4ccc5ccccc5c4)CC3C2)nc1 (stereo not shown)
Given back: < 330 nM
